src = PubChem BioAssay (NCI)

System: HT29 colon
procedureText: NCI tumour cell line growth inhibition, 48 h
Recorded TGI by entry
Express it in µM; write the number only.

Here's what some known entries look like.
C#Cc1cccc(Nc2ncnc3cc(NC(=O)CCl)ccc23)c1 ... 5.74
CCOC(=O)CSc1cc(Cl)c(C)cc1S(=O)(=O)/N=C(/N=C/c1ccc([N+](=O)[O-])s1)NNC ... 28.2
CC(C)OC(=O)c1ccc(NCc2cc(O)ccc2O)cc1 ... 31.5
FC(F)(F)c1ccccc1C1SCC2=Nc3ccccc3CN21 (stereo unspecified) ... 30
COc1cc2c(c(OC)c1OC)-c1ccc(NN(C(=O)c3ccccc3)C(=O)c3ccccc3)c(=O)cc1[C@@H](NC(C)=O)CC2 (tested in a mixture with another compound) ... 11.1
c1ccc(-c2oc(-c3ccccc3)c(CN3CCCCC3)c2CN2CCCCC2)cc1 ... 13.3
O=C1Nc2ccc(Br)cc2C12CC(c1ccccc1)=NN2 (stereo unspecified) ... 13
COc1cc(C2c3cc4c(cc3[C@@H](NCCN(C)C)C3COC(=O)[C@H]23)OCO4)cc(OC)c1O (stereo partly specified) ... 5

Provide one value: measured TGI of `COc1cc(-c2cc(/C=C/C(=O)c3ccc(F)c(F)c3)[nH]n2)cc(OC)c1OC`
6.47

----------
Tested on: TK-10 renal
procedureText: NCI tumour cell line growth inhibition, 48 h; in the data active = GI50 below about 0.43 µM; inactive = the rest
Select the matching outcome among label 1 for active, label 0 for inactive

So what was the verdict on `COc1ccc2nc3cc(Cl)ccc3c(NCCCNCCO)c2c1` in this test?
label 0

----------
Test system: HOP-18 NSCLC
procedureText: NCI tumour cell line growth inhibition, 48 h
Each entry below lists one item and its recorded TGI value.

O=C1c2ccccc2C(=O)c2cc3c(cc21)CS(=O)C3 ... > 100 µM
S=c1sc2c(s1)SC(c1ccccc1)CS2 (stereo not drawn) ... > 100 µM
COCC(C)(C)N=CN1Cc2cc3ccccc3nc2C1 ... > 100 µM
CCOC(=O)Cc1cc(OC)c(OC)cc1/C(Cl)=C(\CO)c1ccc(OC)c(OC)c1 ... > 100 µM
COC(=O)C(=O)C(C(=O)OC)C(=O)C(=O)Nc1c(C)cccc1C (stereo not drawn) ... > 100 µM

Input `COc1cc[c]([Sn]([c]2ccc(OC)cc2)([c]2ccc(OC)cc2)[c]2ccc(OC)cc2)cc1` , output reported TGI.
21.1 µM

In one line, give reported TGI of the entry Cc1ccc(C(=O)CC2(O)C(=O)Nc3c(C)cc(Cl)cc32)cc1 (stereo not drawn) .
> 100 µM

For `N#CCCn1[nH]c(=O)c(Cl)c(Cl)c1=O` , write its TGI.
30.6 µM

Give a short answer stating reported TGI for NC1NC=NC2C1N=CN2C1OC(CO)C2[O][Sn][O]C21 (stereo not drawn) .
> 100 µM

Look up and report measured TGI for this entry: O=[N+]([O-])c1ccc(C2=Nc3ccccc3S(=O)C(c3ccccc3)C2)cc1 (stereo not drawn)
> 100 µM

----------
Test system: PC-3 prostate
procedureText: NCI tumour cell line growth inhibition, 48 h
GI50 reference

These solved cases illustrate the format of a correct answer.
O=C1/C(=C/c2ccc(Cl)c(Cl)c2)CN(C(=O)C(Cl)Cl)C/C1=C\c1ccc(Cl)c(Cl)c1 ... 73.7 nM
c1ccc(-c2oc(-c3ccccc3)c(CN3CCCCC3)c2CN2CCCCC2)cc1 ... 2340 nM
COc1ccc2nc3cc(Cl)ccc3c(NCCCNCCO)c2c1 ... 544 nM
O=C1NC(=NCCc2ccc(F)cc2)S/C1=C\c1ccc2ncccc2c1 ... > 25000 nM
CCOC(=O)CSc1cc(Cl)c(C)cc1S(=O)(=O)/N=C(/N=C/c1ccc([N+](=O)[O-])s1)NNC ... 25000 nM

Read off the recorded GI50 for `CN1CCN(CC(=O)N(C)c2ccc(N=C(c3ccccc3)c3c(O)[nH]c4ccc(C#N)cc34)cc2)CC1`
2370 nM

Specify measured GI50 for `CCN(CC)c1ccc(/C=C/C(=O)c2ccc(Nc3nc(Nc4ccccc4)nc(Nc4ccccc4)n3)cc2)cc1` .
3200 nM

# return recorded GI50 for input CC1CC2C3CCC4=CC(=O)C=CC4(C)C3(F)C(O)CC2(C)C1(O)C(=O)COP(=O)(O)O (configuration not stated)
> 500000 nM

Read the entry O=C1CC(c2c[nH]c3ccc(F)cc23)C(=O)N1 (configuration not stated) and write its reported GI50.
> 100000 nM

Output GI50 of `CN=C(N)c1ccc(N=C(N)c2ccc(-c3ccc(C(N)=Nc4ccc(C(N)=NC)cc4)cc3)cc2)cc1`
> 100000 nM
